FYI, the data here is from patent US20240392001A1.

# test_system: LILRB2-chimeric reporter receptor on reporter cells (UniProt Q8N423 22-460)
# Sequence (Q8N423 22-460, change not shown): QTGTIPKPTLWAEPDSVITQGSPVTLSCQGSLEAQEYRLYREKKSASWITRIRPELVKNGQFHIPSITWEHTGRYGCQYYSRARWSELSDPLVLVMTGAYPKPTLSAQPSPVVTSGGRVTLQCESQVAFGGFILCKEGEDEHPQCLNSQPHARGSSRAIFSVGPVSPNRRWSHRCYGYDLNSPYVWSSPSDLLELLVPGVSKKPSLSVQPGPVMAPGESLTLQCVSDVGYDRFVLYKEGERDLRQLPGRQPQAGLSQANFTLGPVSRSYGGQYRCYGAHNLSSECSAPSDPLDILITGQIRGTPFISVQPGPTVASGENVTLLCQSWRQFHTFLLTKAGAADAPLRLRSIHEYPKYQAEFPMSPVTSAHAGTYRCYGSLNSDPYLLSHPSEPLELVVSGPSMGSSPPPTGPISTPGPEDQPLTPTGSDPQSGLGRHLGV
# assay_text: cell-based or functional assay
measured_attribute: IC50 (M); blocking of PS-LILRB2 interaction
Give bare numbers, in M.

Query block: Report IC50 (M); blocking of PS-LILRB2 interaction, nothing else, for this binder: NeuB2-60 (antibody, V domains shown, also called Ab60; 60-HC/60-LC) VH: QVQLQESGPGLVKPSGTLSLTCAVSGGSITSSNWWSWVRQPPGKGLEWIGDISHSGSTNYNPSLKGRVTMSVDRSKNQFFLKLSSVTAADTAMYYCARAFHGMDVWGQGTTVTVSS VL: QSVLTQPPSVSEAPRQRVTISCSGSSSNIANNAVNWYQQLPGKAPKLLIYYDDLLASGVSDRFSGSRSGTSAALAISGLQSEDEADYYCATWDDDLNGPIFGGGTKVTVL
Result block: 3.21e-10
